- Procedure Text: Pharmacokinetic food-effect study, single 20 mg/kg dose, healthy subjects (Example 17)
- Setup Conditions: human, in vivo, po, 20 mg/kg, AUC0-8, cannabidiol, single 20 mg/kg oral, fasted; mean ± SD
Experimental Readout: AUC(0-t)
Please give the number followed by its unit.

Query (compound): C=C(C)[C@@H]1CCC(C)=C[C@H]1c1c(O)cc(CCCCC)cc1O [cannabidiol] ; field requested: AUC(0-t)
0.0229 µg·h/mL

====

- Procedure Text: Pharmacokinetic food-effect study, single 20 mg/kg dose, healthy subjects (Example 17)
- Setup Conditions: human, in vivo, po, 20 mg/kg, AUC0-t, cannabidiol, single 20 mg/kg oral dose of cannabidiol solution, fed; mean
Experimental Readout: AUC(0-t) (ng·h/mL)
# unit: ng·h/mL | format: bare number

Please look up its AUC(0-t): C=C(C)[C@@H]1CCC(C)=C[C@H]1c1c(O)cc(CCCCC)cc1O
9650

====

- Procedure Text: Pharmacokinetic food-effect study, single 20 mg/kg dose, healthy subjects (Example 17)
- Setup Conditions: human, in vivo, po, 20 mg/kg, ln(Cmax) Geometric Mean, cannabidiol, 20 mg/kg oral, Fasted; least squares geometric mean
Experimental Readout: Cmax (µg/mL)
Write the value in µg/mL as a bare number.

Can you share its Cmax? I mean this molecule: C=C(C)[C@@H]1CCC(C)=C[C@H]1c1c(O)cc(CCCCC)cc1O
0.0445

====

- Procedure Text: Pharmacokinetic food-effect study, single 20 mg/kg dose, healthy subjects (Example 17)
- Setup Conditions: human, in vivo, po, 20 mg/kg, AUC0-4, cannabidiol, single 20 mg/kg oral, fed; mean ± SD
Experimental Readout: AUC(0-t) (µg·h/mL)
Numeric answer only, unit µg·h/mL assumed.

Consider the compound shown here: C=C(C)[C@@H]1CCC(C)=C[C@H]1c1c(O)cc(CCCCC)cc1O [cannabidiol] What is its recorded AUC(0-t)?
0.812

====

- Procedure Text: Pharmacokinetic food-effect study, single 20 mg/kg dose, healthy subjects (Example 17)
- Setup Conditions: human, in vivo, po, 20 mg/kg, AUC0-inf, cannabidiol, single 20 mg/kg oral dose of cannabidiol solution, fasted; mean
Experimental Readout: AUC(0-inf) (ng·h/mL)
The answer is to be given in ng·h/mL; state only the numeric part.

So what's the measured AUC(0-inf) for this one? C=C(C)[C@@H]1CCC(C)=C[C@H]1c1c(O)cc(CCCCC)cc1O
360

====

- Procedure Text: Pharmacokinetic food-effect study, single 20 mg/kg dose, healthy subjects (Example 17)
- Setup Conditions: human, in vivo, po, 20 mg/kg, AUC0-2.5, cannabidiol, single 20 mg/kg oral, fasted; mean ± SD
Experimental Readout: AUC(0-t) (ng·h/mL)
State just the number; it will be interpreted in ng·h/mL.

State the recorded AUC(0-t) for this entry: C=C(C)[C@@H]1CCC(C)=C[C@H]1c1c(O)cc(CCCCC)cc1O
5.38

====

- Procedure Text: Pharmacokinetic food-effect study, single 20 mg/kg dose, healthy subjects (Example 17)
- Setup Conditions: human, in vivo, po, 20 mg/kg, AUC0-t, cannabidiol, single 20 mg/kg oral dose of cannabidiol solution, fasted; mean
Experimental Readout: AUC(0-t) (ng·h/mL)
Just the number please, in ng·h/mL, no unit attached.

Fill blank: measured AUC(0-t) of the compound C=C(C)[C@@H]1CCC(C)=C[C@H]1c1c(O)cc(CCCCC)cc1O is ____.
466
